Source: PubChem BioAssay AID624129

target: C-X-C chemokine receptor type 6 (Homo sapiens) (UniProt O00574); assay: potency against CXCR6 with APJ panel – cell-based, beta-arrestin, DiscoveRx, uHTS hits, dose response (AID 624129); settings: CXCR6 beta-arrestin (DiscoveRx) antagonist cell assay, CXCR6, dose range 1, mean IC50 across replicates
Sequence (O00574 whole entry, looked up): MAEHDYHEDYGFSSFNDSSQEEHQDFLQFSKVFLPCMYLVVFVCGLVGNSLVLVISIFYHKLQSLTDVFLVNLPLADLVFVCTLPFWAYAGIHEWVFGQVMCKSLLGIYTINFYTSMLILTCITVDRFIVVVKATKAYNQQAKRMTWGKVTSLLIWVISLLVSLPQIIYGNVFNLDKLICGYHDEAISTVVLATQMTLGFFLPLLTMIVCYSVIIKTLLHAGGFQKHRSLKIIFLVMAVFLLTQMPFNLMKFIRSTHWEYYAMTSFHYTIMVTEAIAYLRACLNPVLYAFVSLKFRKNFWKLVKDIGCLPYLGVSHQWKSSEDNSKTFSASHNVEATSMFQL
pIC50: −log10 of the molar value.
This section presents compounds with their documented pIC50 values.
MEASURED PARAMETER: pIC50

{"COMPOUND": "O=C1C=CC(=O)N1c1cccc(-c2ccccc2)c1", "COMPARISON SIGN": "=", "OBSERVED": 5.02}
{"COMPOUND": "CCC(C)c1ccc(O)c(NC(=S)NC(=O)c2cccs2)c1 (stereo unspecified)", "COMPARISON SIGN": "=", "OBSERVED": 4.93}
{"COMPOUND": "On1ccccc1=S", "COMPARISON SIGN": "=", "OBSERVED": 4.75}
{"COMPOUND": "Cc1ccc(C(=O)CNc2ccc(F)cc2)cc1", "COMPARISON SIGN": "=", "OBSERVED": 6.36}
{"COMPOUND": "C=CC[n+]1c(-c2ccc(Cl)cc2Cl)csc1Nc1c(C)n(C)n(-c2ccccc2)c1=O", "COMPARISON SIGN": "=", "OBSERVED": 4.40}
{"COMPOUND": "O=C(Cn1sc2ccccc2c1=O)NC12CC3CC(CC(C3)C1)C2", "COMPARISON SIGN": "=", "OBSERVED": 5.62}
{"COMPOUND": "O=[N+]([O-])c1c(Nc2cccc(O)c2)cc(Cl)c2nonc12", "COMPARISON SIGN": "=", "OBSERVED": 4.86}
{"COMPOUND": "O=C1C=CC2C3C(=O)N(c4ccccc4)C(=O)C3C1N2Cc1ccccc1 (stereo unspecified)", "COMPARISON SIGN": "=", "OBSERVED": 4.67}
{"COMPOUND": "N#C/C(=C/c1ccc(-c2ccc([N+](=O)[O-])cc2)o1)C(=O)Nc1nc(-c2cccs2)cs1", "COMPARISON SIGN": "=", "OBSERVED": 4.42}
{"COMPOUND": "Cc1ccc(NC(=S)NNc2ncc(C(F)(F)F)cc2Cl)cc1", "COMPARISON SIGN": "=", "OBSERVED": 4.87}
{"COMPOUND": "CCc1nnc(NS(=O)(=O)c2ccc(Nc3ccc([N+](=O)[O-])c4nonc34)cc2)s1", "COMPARISON SIGN": "=", "OBSERVED": 4.47}
{"COMPOUND": "COC(=O)c1ccc(CCc2cc(O)c(Br)cc2O)cc1", "COMPARISON SIGN": "=", "OBSERVED": 4.37}
{"COMPOUND": "CCCCCCCCn1sccc1=O", "COMPARISON SIGN": "=", "OBSERVED": 5.09}
{"COMPOUND": "CCOc1ccc2nc(NC(=O)c3ccccn3)sc2c1", "COMPARISON SIGN": "=", "OBSERVED": 4.87}
{"COMPOUND": "O=C(Nc1cccc(C(F)(F)F)c1)Oc1ccc(Cl)c2cccnc12", "COMPARISON SIGN": "=", "OBSERVED": 6.15}
{"COMPOUND": "COc1ccc(C(=O)/C=C/C(=O)N(CC(=O)NC2CCCCC2)CC2CCCO2)c(O)c1 (stereo unspecified)", "COMPARISON SIGN": "<", "OBSERVED": 4.10}
{"COMPOUND": "Cc1ccsc1/C=C/c1ccc2cccc(O)c2n1", "COMPARISON SIGN": "=", "OBSERVED": 5.26}
{"COMPOUND": "COc1ccc(C(=O)/C=C/Sc2nc3ccccc3o2)cc1", "COMPARISON SIGN": "=", "OBSERVED": 4.35}
{"COMPOUND": "O=[N+]([O-])c1ccc(Sc2cccc[n+]2[O-])c2nonc12", "COMPARISON SIGN": "<", "OBSERVED": 4.10}
{"COMPOUND": "O=C(Nc1ccccc1)c1ccc(Nc2c([N+](=O)[O-])cc([N+](=O)[O-])c3ccccc23)cc1", "COMPARISON SIGN": "=", "OBSERVED": 4.35}
{"COMPOUND": "CC1=C(O)C(=O)C=C2C1=CC=C1C2(C)CCC2(C)C3CC(C)(C(=O)O)CCC3(C)CCC12C (stereo unspecified)", "COMPARISON SIGN": "=", "OBSERVED": 4.71}
{"COMPOUND": "COc1cc(/C=C/c2ccc3cccc(O)c3n2)cc(OC)c1OC", "COMPARISON SIGN": "=", "OBSERVED": 5.43}
{"COMPOUND": "CCOC(=O)C1=C(C)NC2=C(C(=O)CC(c3cccs3)C2)C1c1cccs1 (stereo unspecified)", "COMPARISON SIGN": "=", "OBSERVED": 4.62}
{"COMPOUND": "COC(=O)c1ccccc1-c1c2ccc(=N)cc-2oc2cc(N)ccc12", "COMPARISON SIGN": "=", "OBSERVED": 4.75}
{"COMPOUND": "CCCNC(=O)c1nnsc1S(=O)(=O)c1ccc(Cl)cc1", "COMPARISON SIGN": "=", "OBSERVED": 4.85}
{"COMPOUND": "O=C(COc1ccc(Br)cc1Cl)NC(=S)N1CCc2ccccc21", "COMPARISON SIGN": "=", "OBSERVED": 4.76}
{"COMPOUND": "CC(=O)OCCNc1cc(Sc2nc3ccccc3[nH]2)c2nonc2c1[N+](=O)[O-]", "COMPARISON SIGN": "=", "OBSERVED": 5.19}
{"COMPOUND": "Cc1[nH]n2c(=O)cc(-c3ccc([N+](=O)[O-])cc3)nc2c1-c1ccccc1", "COMPARISON SIGN": "=", "OBSERVED": 4.84}
{"COMPOUND": "CC(=O)Nc1ccc(Sc2ccc([N+](=O)[O-])o2)cc1", "COMPARISON SIGN": "=", "OBSERVED": 4.97}
{"COMPOUND": "O=C(Nc1nc(-c2ccccn2)cs1)Nc1ccc(F)cc1F", "COMPARISON SIGN": "=", "OBSERVED": 5.05}
{"COMPOUND": "C=C1CC2(OC1=O)c1ccccc1CCc1ccccc12", "COMPARISON SIGN": "=", "OBSERVED": 4.73}
{"COMPOUND": "COc1ccc(NC(=O)/C(Cl)=C(/Cl)S(=O)Cc2ccccc2)cn1 (stereo unspecified)", "COMPARISON SIGN": "=", "OBSERVED": 5.18}
{"COMPOUND": "COC(=O)[C@@H]1[C@@H](C#N)C2(c3ccccc3-c3ccccc32)N(c2ccc(Cl)cc2)N1C#N", "COMPARISON SIGN": "<", "OBSERVED": 4.10}
{"COMPOUND": "Cn1c(=O)c([N+](=O)[O-])c(Cl)c2ccccc21", "COMPARISON SIGN": "=", "OBSERVED": 4.65}
{"COMPOUND": "O=[N+]([O-])c1ccc(Sc2cccc3cccnc23)c([N+](=O)[O-])c1", "COMPARISON SIGN": "=", "OBSERVED": 5.40}
{"COMPOUND": "Oc1c(Br)cc(Br)cc1C=NCc1ccccc1", "COMPARISON SIGN": "=", "OBSERVED": 4.74}
